Source: patent US4220644A

- Test system: Entero. aerog. ATCC 13048
- assay.summary: MIC in vitro (Table 1), Entero. aerog. ATCC 13048
- Type: cell-based
Listing: MIC of selected compounds
Just the number in µg/mL, nothing appended.

Some entries whose results are on file:
O=C(O)Cn1nnnc1SCC1=C(C(=O)O)N2C(=O)C(NC(=O)[C@H](O)c3ccccc3)[C@H]2SC1 (stereo partly shown) [I] : 12.5
NC(=O)CCCn1nnnc1SCC1=C(C(=O)O)N2C(=O)C(NC(=O)CSC(F)(F)F)[C@H]2SC1 (stereo partly shown) [XX] : 3.1
CNC(=O)Cn1nnnc1SCC1=C(C(=O)O)N2C(=O)C(NC(=O)[C@H](O)c3ccccc3)[C@H]2SC1 (stereo partly shown) [III] : 3.1

Req: Param item = CN(C)C(=O)Cn1nnnc1SCC1=C(C(=O)O)N2C(=O)C(NC(=O)[C@H](N)c3ccc(O)cc3)C2SC1 (stereo partly shown) [IX] ; retrieve measured MIC.
Resp: 12.5
